- Procedure Details: Selectivity index, ratio of IC50 for african green monkey (Cercopithecus aethiops) Vero cells to IC50 for chloroquine-sensitive Plasmodium falciparum 3D7
- Assay type: toxicity, cell-based
- Setup Conditions: read-out: Ratio IC50
Recorded selectivity ratio split into classes 0 = under 100, 1 = from 100 up to 300, 2 = 300 and over

Examples with answers:
1) CNc1nc(Nc2ccc(F)cc2)nc(Nc2ccc(Nc3c4ccc(Cl)cc4nc4ccc(OC)cc34)cc2)n1
2
2) COc1ccc2nc3cc(Cl)ccc3c(Nc3ccc(Nc4nc(N)nc(Nc5ccc(F)cc5)n4)cc3)c2c1
0
3) COc1ccc2nc3cc(Cl)ccc3c(Nc3ccc(Nc4nc(NCCCN5CCOCC5)nc(Nc5ccccc5)n4)cc3)c2c1
0
4) CCN(CC)CCNc1nc(Nc2ccc(F)cc2)nc(Nc2ccc(Nc3c4ccc(Cl)cc4nc4ccc(OC)cc34)cc2)n1
1
5) COc1ccc2nc3cc(Cl)ccc3c(Nc3ccc(Nc4nc(NCCN5CCOCC5)nc(Nc5ccccc5)n4)cc3)c2c1
2

Note: place this molecule into its band. Item: `COc1ccc2nc3cc(Cl)ccc3c(Nc3ccc(Nc4nc(Nc5ccc(F)cc5)nc(N5CCN(C)CC5)n4)cc3)c2c1`
1

Note: place this molecule into its band. Item: `COc1ccc2nc3cc(Cl)ccc3c(Nc3ccc(Nc4nc(N)nc(Nc5ccccc5)n4)cc3)c2c1`
2

Note: place this molecule into its band. Item: `COc1ccc2nc3cc(Cl)ccc3c(Nc3ccc(Nc4nc(Nc5ccccc5)nc(N5CCN(C)CC5)n4)cc3)c2c1`
1

###

- Test system: Plasmodium yoelii
- Procedure Details: Antimalarial activity against chloroquine-resistant Plasmodium yoelii N67 infected in Swiss mice (Mus musculus) assessed as suppression of parasitaemia at 100 mg/kg, peroral for 4 days
- Assay type: functional
- Setup Conditions: N67, 96 h, route oral
Measurement Label: inhibition in vivo at 100 mg/kg (%)
Answer in %, number only, no unit symbol.

Query the reported inhibition in vivo at 100 mg/kg for Plasmodium yoelii; item: `COc1ccc2nc3cc(Cl)ccc3c(Nc3ccc(Nc4nc(NCCCN(C)C)nc(Nc5ccccc5)n4)cc3)c2c1`
95.7

Query the reported inhibition in vivo at 100 mg/kg for Plasmodium yoelii; item: `COc1ccc2nc3cc(Cl)ccc3c(Nc3ccc(Nc4nc(NCCN5CCOCC5)nc(Nc5ccccc5)n4)cc3)c2c1`
96.6

Query the reported inhibition in vivo at 100 mg/kg for Plasmodium yoelii; item: `COc1ccc2nc3cc(Cl)ccc3c(Nc3ccc(Nc4nc(NCCN(C)C)nc(Nc5ccccc5)n4)cc3)c2c1`
49

Query the reported inhibition in vivo at 100 mg/kg for Plasmodium yoelii; item: `COc1ccc2nc3cc(Cl)ccc3c(Nc3ccc(Nc4nc(NCCN5CCOCC5)nc(Nc5ccc(F)cc5)n4)cc3)c2c1`
98.7

Query the reported inhibition in vivo at 100 mg/kg for Plasmodium yoelii; item: `CCN(CC)CCNc1nc(Nc2ccc(F)cc2)nc(Nc2ccc(Nc3c4ccc(Cl)cc4nc4ccc(OC)cc34)cc2)n1`
95.4

Query the reported inhibition in vivo at 100 mg/kg for Plasmodium yoelii; item: `COc1ccc2nc3cc(Cl)ccc3c(Nc3ccc(Nc4nc(NCCO)nc(Nc5ccccc5)n4)cc3)c2c1`
58.5

Query the reported inhibition in vivo at 100 mg/kg for Plasmodium yoelii; item: CCN(CC)CCCC(C)Nc1ccnc2cc(Cl)ccc12 (configuration not stated)
99.9

###

- Procedure Details: Selectivity index, ratio of IC50 for african green monkey (Cercopithecus aethiops) Vero cells to IC50 for chloroquine-sensitive Plasmodium falciparum 3D7
- Format: toxicity, cell-based
- Setup Conditions: read-out: Ratio IC50
Measurement Label: selectivity ratio
Write the value as a bare number.

The examples below pair each entry with its known result.
1. COc1ccc2nc3cc(Cl)ccc3c(Nc3ccc(Nc4nc(NN)nc(Nc5ccccc5)n4)cc3)c2c1
31.4
2. COc1ccc2nc3cc(Cl)ccc3c(Nc3ccc(Nc4nc(Nc5ccccc5)nc(NC5CCCC5)n4)cc3)c2c1
5010
3. CCCCNc1nc(Nc2ccccc2)nc(Nc2ccc(Nc3c4ccc(Cl)cc4nc4ccc(OC)cc34)cc2)n1
138

Sample `COc1ccc2nc3cc(Cl)ccc3c(Nc3ccc(Nc4nc(NCCCN(C)C)nc(Nc5ccc(F)cc5)n4)cc3)c2c1` — what was its selectivity ratio?
99.8

Sample `COc1ccc2nc3cc(Cl)ccc3c(Nc3ccc(Nc4nc(NCCN5CCOCC5)nc(Nc5ccc(F)cc5)n4)cc3)c2c1` — what was its selectivity ratio?
3090

Sample `COc1ccc2nc3cc(Cl)ccc3c(Nc3ccc(Nc4nc(NCCN(C)C)nc(Nc5ccccc5)n4)cc3)c2c1` — what was its selectivity ratio?
160

Sample `COc1ccc2nc3cc(Cl)ccc3c(Nc3ccc(Nc4nc(NCCCO)nc(Nc5ccccc5)n4)cc3)c2c1` — what was its selectivity ratio?
17.4

Sample `COc1ccc2nc3cc(Cl)ccc3c(Nc3ccc(Nc4nc(NCCCN(C)C)nc(Nc5ccccc5)n4)cc3)c2c1` — what was its selectivity ratio?
295

Sample `COc1ccc2nc3cc(Cl)ccc3c(Nc3ccc(Nc4nc(NCCO)nc(Nc5ccccc5)n4)cc3)c2c1` — what was its selectivity ratio?
755

Sample `COc1ccc2nc3cc(Cl)ccc3c(Nc3ccc(Nc4nc(NCCCN5CCOCC5)nc(Nc5ccc(F)cc5)n4)cc3)c2c1` — what was its selectivity ratio?
1560

Sample `CCN1CCN(c2nc(Nc3ccccc3)nc(Nc3ccc(Nc4c5ccc(Cl)cc5nc5ccc(OC)cc45)cc3)n2)CC1` — what was its selectivity ratio?
164

###

Entries and their measured selectivity ratio follow.
- Procedure Details: Selectivity index, ratio of IC50 for african green monkey (Cercopithecus aethiops) Vero cells to IC50 for chloroquine-sensitive Plasmodium falciparum 3D7
- Type: toxicity, cell-based
- Setup Conditions: read-out: Ratio IC50

The examples below pair each entry with its known result.
1. CCN1CCN(c2nc(Nc3ccc(F)cc3)nc(Nc3ccc(Nc4c5ccc(Cl)cc5nc5ccc(OC)cc45)cc3)n2)CC1
193
2. CCN(CC)CCNc1nc(Nc2ccccc2)nc(Nc2ccc(Nc3c4ccc(Cl)cc4nc4ccc(OC)cc34)cc2)n1
137

--- query ---
Sample `COc1ccc2nc3cc(Cl)ccc3c(Nc3ccc(Nc4nc(NCCN(C)C)nc(Nc5ccc(F)cc5)n4)cc3)c2c1` — what was its selectivity ratio?
28.1

Origin of measurements: ChEMBL document CHEMBL1153706
